Test system: Rattus norvegicus
Experiment: Secretion of Bile in Bile Fistula rats after the iv administration of compound, expressed as the maximum secretion rate
Type: ADME, organism-based
Details: in vivo
Attribute: Smax
PROPERTY: Smax (mL/h/kg)

compound="CC(CCC(=O)NCC(=O)O)C1CC[C@H]2[C@@H]3[C@H](O)CC4C[C@H](O)CCC4(C)[C@H]3CCC12C (stereo partly drawn)" test_target="Rattus norvegicus" property=Smax unit_label=mL/h/kg value=4.62
compound="CC(CCC(=O)N1CCC[C@@H]1C(=O)O)C1CC[C@H]2[C@@H]3[C@H](O)[C@H](O)C4C[C@H](O)CC[C@]4(C)[C@H]3CC[C@]12C (stereo partly drawn)" test_target="Rattus norvegicus" property=Smax unit_label=mL/h/kg value=3.6
compound="CC(CCC(=O)N1CCC[C@@H]1C(=O)O)C1CC[C@H]2[C@@H]3C[C@H](O)C4C[C@H](O)CC[C@]4(C)[C@H]3CC[C@]12C (stereo partly drawn)" test_target="Rattus norvegicus" property=Smax unit_label=mL/h/kg value=4.02

----------
Tested on: Rattus norvegicus
Assay: Secretion of Bile acids in Bile Fistula rats after the iv administration of compound, expressed as the residual secretion rate
Assay type: ADME, organism-based
Settings: in vivo
Examples of compounds with documented Rs follow.
PROPERTY: Rs

compound="CC(CCC(=O)N1CCC[C@@H]1C(=O)O)C1CC[C@H]2[C@@H]3[C@@H](O)CC4C[C@H](O)CC[C@]4(C)[C@H]3CC[C@]12C (stereo partly drawn)" test_target="Rattus norvegicus" property=Rs value="0.9 µM/min/kg"
compound="CC(CCC(=O)NCC(=O)O)C1CC[C@H]2[C@@H]3[C@H](O)CC4C[C@H](O)CCC4(C)[C@H]3CCC12C (stereo partly drawn)" test_target="Rattus norvegicus" property=Rs value="0.8 µM/min/kg"
compound=C[C@H](CCC(=O)O)[C@H]1CC[C@H]2[C@@H]3[C@@H](O)C[C@@H]4C[C@H](O)CC[C@]4(C)[C@H]3CC[C@]12C test_target="Rattus norvegicus" property=Rs value="0.0008 µM/min/g"
compound="CC(CCC(=O)N1C[C@@H](O)C[C@@H]1C(=O)O)C1CC[C@H]2[C@@H]3[C@@H](O)CC4C[C@H](O)CC[C@]4(C)[C@H]3CC[C@]12C (stereo partly drawn)" test_target="Rattus norvegicus" property=Rs value="0.9 µM/min/kg"
compound="CO[C@H]1C[C@H](C(=O)O)N(C(=O)CCC(C)C2CC[C@H]3[C@@H]4[C@@H](O)CC5C[C@H](O)CC[C@]5(C)[C@H]4CC[C@]23C)C1 (stereo partly drawn)" test_target="Rattus norvegicus" property=Rs value="0.8 µM/min/kg"
compound="CC(CCC(=O)N1CCC[C@H]1C(=O)O)C1CC[C@H]2[C@@H]3[C@@H](O)CC4C[C@H](O)CC[C@]4(C)[C@H]3CC[C@]12C (stereo partly drawn)" test_target="Rattus norvegicus" property=Rs value="1.6 µM/min/kg"
compound="CC(CCC(=O)N1CCC[C@@H]1C(=O)O)C1CC[C@H]2[C@@H]3C[C@H](O)C4C[C@H](O)CC[C@]4(C)[C@H]3CC[C@]12C (stereo partly drawn)" test_target="Rattus norvegicus" property=Rs value="1.4 µM/min/kg"
compound="CC(CCC(=O)N1CCC[C@@H]1C(=O)O)C1CC[C@H]2[C@@H]3[C@H](O)[C@H](O)C4C[C@H](O)CC[C@]4(C)[C@H]3CC[C@]12C (stereo partly drawn)" test_target="Rattus norvegicus" property=Rs value="1.8 µM/min/kg"
